- target_under_test: MAP4K4 (human) (UniProt O95819)
- Sequence (O95819 whole entry, looked up): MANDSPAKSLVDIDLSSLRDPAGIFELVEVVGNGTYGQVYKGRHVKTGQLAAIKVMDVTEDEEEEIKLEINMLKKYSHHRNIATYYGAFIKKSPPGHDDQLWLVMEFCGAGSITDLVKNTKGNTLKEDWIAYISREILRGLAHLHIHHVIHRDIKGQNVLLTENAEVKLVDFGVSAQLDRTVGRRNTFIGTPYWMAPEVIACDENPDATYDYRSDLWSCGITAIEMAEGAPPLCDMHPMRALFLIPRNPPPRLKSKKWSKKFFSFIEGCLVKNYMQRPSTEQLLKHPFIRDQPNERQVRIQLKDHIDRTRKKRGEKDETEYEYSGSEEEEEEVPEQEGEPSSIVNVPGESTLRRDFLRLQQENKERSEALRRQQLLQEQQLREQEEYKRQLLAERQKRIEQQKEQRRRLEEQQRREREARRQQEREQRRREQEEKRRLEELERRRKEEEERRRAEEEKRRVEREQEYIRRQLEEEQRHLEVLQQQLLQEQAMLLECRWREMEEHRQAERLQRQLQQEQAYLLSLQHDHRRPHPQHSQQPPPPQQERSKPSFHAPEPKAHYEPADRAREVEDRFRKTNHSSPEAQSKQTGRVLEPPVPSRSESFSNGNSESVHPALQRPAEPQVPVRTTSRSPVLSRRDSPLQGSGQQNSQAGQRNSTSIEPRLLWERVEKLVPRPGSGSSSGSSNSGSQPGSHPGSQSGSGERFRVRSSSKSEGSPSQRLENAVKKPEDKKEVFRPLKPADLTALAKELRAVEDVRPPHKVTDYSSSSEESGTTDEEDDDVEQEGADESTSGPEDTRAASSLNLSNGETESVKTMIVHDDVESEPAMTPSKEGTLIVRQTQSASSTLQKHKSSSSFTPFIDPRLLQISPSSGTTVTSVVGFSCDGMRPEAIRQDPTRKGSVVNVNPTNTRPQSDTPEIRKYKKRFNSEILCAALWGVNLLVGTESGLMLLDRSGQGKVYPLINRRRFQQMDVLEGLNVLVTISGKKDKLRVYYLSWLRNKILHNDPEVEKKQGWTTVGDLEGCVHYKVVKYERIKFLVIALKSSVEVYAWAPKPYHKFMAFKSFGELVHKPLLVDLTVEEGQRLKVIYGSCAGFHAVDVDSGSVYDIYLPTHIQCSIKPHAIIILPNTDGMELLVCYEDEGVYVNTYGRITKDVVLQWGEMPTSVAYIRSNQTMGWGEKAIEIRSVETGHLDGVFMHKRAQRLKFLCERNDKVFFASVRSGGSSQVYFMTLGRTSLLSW
- assay_comment: radiometric filter-binding kinase assay, Kinase HotSpot
- assay_setup: compound 0.5 µM; ATP 10 µM
Quick reference for residual activity among some molecules

| substance_smiles | u | residual activity |
| --- | --- | --- |
| CN(C)S(=O)(=O)c1ccc2c(c1)/C(=C/c1cc3c([nH]1)CCCC3)C(=O)N2 | % | 46.1 |
| c1ccc2c(-c3ccncc3)c[nH]c2c1 | % | 54.4 |
| Fc1ccc(-c2nc3n(c2-c2ccncc2)CCS3)cc1 | % | 72.3 |

---

- target_under_test: PRKCI (human) (UniProt P41743)
- Sequence (P41743 whole entry, looked up): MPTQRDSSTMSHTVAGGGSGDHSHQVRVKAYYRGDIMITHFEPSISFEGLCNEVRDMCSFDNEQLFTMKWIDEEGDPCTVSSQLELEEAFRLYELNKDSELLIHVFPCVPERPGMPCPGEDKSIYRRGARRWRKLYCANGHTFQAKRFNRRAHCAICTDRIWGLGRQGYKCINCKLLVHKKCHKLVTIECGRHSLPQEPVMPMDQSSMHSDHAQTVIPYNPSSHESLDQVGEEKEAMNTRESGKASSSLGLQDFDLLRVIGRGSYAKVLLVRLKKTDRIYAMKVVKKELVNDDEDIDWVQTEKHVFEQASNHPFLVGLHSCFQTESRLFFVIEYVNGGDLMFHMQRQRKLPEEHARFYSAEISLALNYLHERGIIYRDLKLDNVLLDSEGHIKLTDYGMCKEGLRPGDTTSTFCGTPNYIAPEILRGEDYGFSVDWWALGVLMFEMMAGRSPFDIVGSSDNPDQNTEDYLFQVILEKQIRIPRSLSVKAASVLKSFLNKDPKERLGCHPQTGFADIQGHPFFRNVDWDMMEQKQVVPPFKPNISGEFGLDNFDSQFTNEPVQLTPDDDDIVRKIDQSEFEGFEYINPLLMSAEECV
- assay_comment: radiometric filter-binding kinase assay, Kinase HotSpot
- assay_setup: compound 0.5 µM; ATP 10 µM
quantity_name: residual activity (%)

| substance_smiles | quantity_name | test_result |
| --- | --- | --- |
| Cc1cccc(-c2nc(C(C)(C)C)[nH]c2-c2ccc3c(c2)OCO3)n1 | residual activity | 92.8 |
| C[C@@H]1CCN(C(=O)CC#N)C[C@@H]1N(C)c1ncnc2[nH]ccc12 | residual activity | 103 |
| CN(C)S(=O)(=O)c1ccc2c(c1)/C(=C/c1cc3c([nH]1)CCCC3)C(=O)N2 | residual activity | 95.9 |
| COc1ccc(S(=O)(=O)N(CCO)c2ccccc2CN(C)C/C=C/c2ccc(Cl)cc2)cc1 | residual activity | 97.5 |
| O=C1NC(=O)c2c1c1c3ccccc3[nH]c1n1cncc21 | residual activity | 82.3 |

---

- target_under_test: RET (human) (UniProt P07949)
- Sequence (P07949 whole entry, looked up): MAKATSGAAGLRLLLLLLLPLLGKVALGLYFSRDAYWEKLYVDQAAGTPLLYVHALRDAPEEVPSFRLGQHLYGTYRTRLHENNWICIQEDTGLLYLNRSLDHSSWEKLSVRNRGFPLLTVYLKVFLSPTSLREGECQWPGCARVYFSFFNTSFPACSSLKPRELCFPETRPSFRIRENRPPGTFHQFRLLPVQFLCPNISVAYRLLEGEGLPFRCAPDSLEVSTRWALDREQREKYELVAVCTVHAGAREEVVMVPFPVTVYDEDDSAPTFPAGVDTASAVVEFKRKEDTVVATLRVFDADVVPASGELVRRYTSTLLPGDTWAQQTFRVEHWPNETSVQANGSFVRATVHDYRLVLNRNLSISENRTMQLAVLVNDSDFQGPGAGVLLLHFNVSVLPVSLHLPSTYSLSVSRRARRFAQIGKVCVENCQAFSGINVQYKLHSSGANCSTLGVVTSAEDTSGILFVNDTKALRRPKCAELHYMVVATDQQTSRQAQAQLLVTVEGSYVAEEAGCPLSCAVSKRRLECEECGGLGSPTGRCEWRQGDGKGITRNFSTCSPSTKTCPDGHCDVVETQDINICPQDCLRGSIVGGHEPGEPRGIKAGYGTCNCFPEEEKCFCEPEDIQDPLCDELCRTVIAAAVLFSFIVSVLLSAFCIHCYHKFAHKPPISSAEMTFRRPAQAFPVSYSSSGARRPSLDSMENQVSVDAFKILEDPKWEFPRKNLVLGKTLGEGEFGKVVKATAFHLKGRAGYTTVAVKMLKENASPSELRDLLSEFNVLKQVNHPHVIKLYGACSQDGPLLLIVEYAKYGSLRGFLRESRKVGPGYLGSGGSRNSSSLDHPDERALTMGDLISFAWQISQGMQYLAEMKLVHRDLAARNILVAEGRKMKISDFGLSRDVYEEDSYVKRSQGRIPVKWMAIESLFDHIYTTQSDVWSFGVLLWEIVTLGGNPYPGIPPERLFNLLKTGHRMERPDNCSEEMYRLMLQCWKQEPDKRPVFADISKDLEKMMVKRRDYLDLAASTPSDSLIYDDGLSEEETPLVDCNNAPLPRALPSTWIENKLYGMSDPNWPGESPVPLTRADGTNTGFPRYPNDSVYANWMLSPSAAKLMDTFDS
- assay_comment: radiometric filter-binding kinase assay, Kinase HotSpot
- assay_setup: compound 0.5 µM; ATP 10 µM

| substance_smiles | residual activity |
| --- | --- |
| Fc1ccc(-c2nc3n(c2-c2ccncc2)CCS3)cc1 | 99.5% |
| c1ccc2c(-c3ccncc3)c[nH]c2c1 | 97.3% |
| O=C(c1cc2cc(O)ccc2[nH]1)c1cc2cc(O)ccc2[nH]1 | 8.98% |
| CCCCc1c(-c2ccc(OC)cc2)[nH]c2nccnc12 | 56.3% |

---

- target_under_test: CDK4 CCND3 (human) (UniProt P30281+P11802)
- Sequence (P11802 whole entry, looked up): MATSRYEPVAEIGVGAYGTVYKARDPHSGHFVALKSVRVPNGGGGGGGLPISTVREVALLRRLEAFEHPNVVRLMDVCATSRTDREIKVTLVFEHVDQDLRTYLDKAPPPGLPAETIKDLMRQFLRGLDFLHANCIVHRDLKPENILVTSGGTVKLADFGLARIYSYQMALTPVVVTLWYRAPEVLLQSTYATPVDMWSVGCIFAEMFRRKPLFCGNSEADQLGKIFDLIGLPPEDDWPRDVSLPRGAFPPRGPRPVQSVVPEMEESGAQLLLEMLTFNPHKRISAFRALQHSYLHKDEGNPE
- Sequence (P30281 whole entry, looked up): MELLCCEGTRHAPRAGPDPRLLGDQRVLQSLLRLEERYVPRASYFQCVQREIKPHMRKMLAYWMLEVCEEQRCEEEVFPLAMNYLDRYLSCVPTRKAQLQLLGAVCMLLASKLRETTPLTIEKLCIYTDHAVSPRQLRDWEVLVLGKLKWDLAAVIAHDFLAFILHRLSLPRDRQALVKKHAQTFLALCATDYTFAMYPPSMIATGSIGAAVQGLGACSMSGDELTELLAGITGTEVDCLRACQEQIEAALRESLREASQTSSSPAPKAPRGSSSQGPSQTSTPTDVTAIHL
- assay_comment: radiometric filter-binding kinase assay, Kinase HotSpot
- assay_setup: compound 0.5 µM; ATP 10 µM

| substance_smiles | target_under_test | residual activity (%) |
| --- | --- | --- |
| COc1ccc(Cl)cc1NC(=O)Nc1cc(C)nc2ccccc12 | CDK4 CCND3 (human) (UniProt P30281+P11802) | 98.5 |
| Ic1cccc(CSc2nnc(-c3ccncc3)o2)c1 | CDK4 CCND3 (human) (UniProt P30281+P11802) | 97.5 |
| COc1cc2ncnc(Nc3ccc(OCc4ccccc4)cc3)c2cc1OC | CDK4 CCND3 (human) (UniProt P30281+P11802) | 102 |
| NCCNc1ncc(C(N)=O)c(Nc2cccc(C(F)(F)F)c2)n1 | CDK4 CCND3 (human) (UniProt P30281+P11802) | 94.8 |
| N#C/C(=C\c1ccc(O)c(O)c1)C(=O)NCc1ccccc1 | CDK4 CCND3 (human) (UniProt P30281+P11802) | 98 |
| O=C1c2ccccc2-c2n[nH]c3cccc1c23 | CDK4 CCND3 (human) (UniProt P30281+P11802) | 104 |
| CC(C)(C)c1cc(C=C(C#N)C#N)cc(Br)c1O | CDK4 CCND3 (human) (UniProt P30281+P11802) | 96.5 |
| N#Cc1c[nH]c2c[nH]/c(=N\Cc3cccnc3)cc2/c1=N\c1ccc(F)c(Cl)c1 | CDK4 CCND3 (human) (UniProt P30281+P11802) | 101 |
| Cc1cn(-c2cc(NC(=O)c3ccc(C)c(Nc4nccc(-c5cccnc5)n4)c3)cc(C(F)(F)F)c2)cn1 | CDK4 CCND3 (human) (UniProt P30281+P11802) | 108 |
| Fc1ccc(-c2nc3n(c2-c2ccncc2)CCS3)cc1 | CDK4 CCND3 (human) (UniProt P30281+P11802) | 94.9 |
| CN1CCN(c2ccc3nc(-c4c(N)c5c(F)cccc5[nH]c4=O)[nH]c3c2)CC1 | CDK4 CCND3 (human) (UniProt P30281+P11802) | 89.6 |
| O=C1c2ccccc2-c2nc3nnnn3nc21 | CDK4 CCND3 (human) (UniProt P30281+P11802) | 68.1 |
| O=C1NC(=O)c2c1c1c3ccccc3[nH]c1n1cncc21 | CDK4 CCND3 (human) (UniProt P30281+P11802) | 87.1 |
| COc1ccc2c(c1)c(C1=C(c3c[nH]c4ccccc34)C(=O)NC1=O)cn2CCCN(C)C | CDK4 CCND3 (human) (UniProt P30281+P11802) | 95.5 |
| CN(C)S(=O)(=O)c1ccc2c(c1)/C(=C/c1cc3c([nH]1)CCCC3)C(=O)N2 | CDK4 CCND3 (human) (UniProt P30281+P11802) | 99.1 |

---

- target_under_test: PRKCB2 (human)
- assay_comment: radiometric filter-binding kinase assay, Kinase HotSpot
- assay_setup: compound 0.5 µM; ATP 10 µM
quantity_name: residual activity (%)

| substance_smiles | target_under_test | quantity_name | test_result |
| --- | --- | --- | --- |
| c1ccc2c(-c3ccncc3)c[nH]c2c1 | PRKCB2 (human) | residual activity | 89.5 |
| Cc1nc(-c2ccccc2)c(-c2ccncc2)o1 | PRKCB2 (human) | residual activity | 88.4 |
| Cc1cncc2cccc(S(=O)(=O)N3CCCN(C(=O)CN)C[C@H]3C)c12 | PRKCB2 (human) | residual activity | 91.3 |
| C[C@@H]1CCN(C(=O)CC#N)C[C@@H]1N(C)c1ncnc2[nH]ccc12 | PRKCB2 (human) | residual activity | 88.1 |
| CN(C)S(=O)(=O)c1ccc2c(c1)/C(=C/c1cc3c([nH]1)CCCC3)C(=O)N2 | PRKCB2 (human) | residual activity | 92 |
| COc1cc(Nc2c(C#N)cnc3cc(OCCCN4CCN(C)CC4)c(OC)cc23)c(Cl)cc1Cl | PRKCB2 (human) | residual activity | 88.4 |

---

- target_under_test: MYLK (human)
- assay_comment: radiometric filter-binding kinase assay, Kinase HotSpot
- assay_setup: compound 0.5 µM; ATP 10 µM
quantity_name: residual activity (%)

| substance_smiles | target_under_test | u | test_result |
| --- | --- | --- | --- |
| O=C(c1cc2cc(O)ccc2[nH]1)c1cc2cc(O)ccc2[nH]1 | MYLK (human) | % | 91.4 |
| C[C@@H]1CCN(C(=O)CC#N)C[C@@H]1N(C)c1ncnc2[nH]ccc12 | MYLK (human) | % | 89.9 |
| NC(=O)c1cccc(-c2cc(Nc3ccc(OC(F)(F)F)cc3)ncn2)c1 | MYLK (human) | % | 91.9 |

---

- target_under_test: CSNK1D (human)
- assay_comment: radiometric filter-binding kinase assay, Kinase HotSpot
- assay_setup: compound 0.5 µM; ATP 10 µM
Consider the following molecules and their measured residual activity readings.

| substance_smiles | u | residual activity |
| --- | --- | --- |
| Fc1ccc(-c2nc3n(c2-c2ccncc2)CCS3)cc1 | % | 6.99 |
| O=C1Nc2ccc(Br)cc2/C1=C\c1cc2c([nH]1)CCCC2 | % | 72.4 |
| CS(=O)(=O)CCNCc1ccc(-c2ccc3ncnc(Nc4ccc(OCc5cccc(F)c5)c(Cl)c4)c3c2)o1 | % | 91.2 |

---

- target_under_test: EPHB1 (human) (UniProt P54762)
- Sequence (P54762 whole entry, looked up): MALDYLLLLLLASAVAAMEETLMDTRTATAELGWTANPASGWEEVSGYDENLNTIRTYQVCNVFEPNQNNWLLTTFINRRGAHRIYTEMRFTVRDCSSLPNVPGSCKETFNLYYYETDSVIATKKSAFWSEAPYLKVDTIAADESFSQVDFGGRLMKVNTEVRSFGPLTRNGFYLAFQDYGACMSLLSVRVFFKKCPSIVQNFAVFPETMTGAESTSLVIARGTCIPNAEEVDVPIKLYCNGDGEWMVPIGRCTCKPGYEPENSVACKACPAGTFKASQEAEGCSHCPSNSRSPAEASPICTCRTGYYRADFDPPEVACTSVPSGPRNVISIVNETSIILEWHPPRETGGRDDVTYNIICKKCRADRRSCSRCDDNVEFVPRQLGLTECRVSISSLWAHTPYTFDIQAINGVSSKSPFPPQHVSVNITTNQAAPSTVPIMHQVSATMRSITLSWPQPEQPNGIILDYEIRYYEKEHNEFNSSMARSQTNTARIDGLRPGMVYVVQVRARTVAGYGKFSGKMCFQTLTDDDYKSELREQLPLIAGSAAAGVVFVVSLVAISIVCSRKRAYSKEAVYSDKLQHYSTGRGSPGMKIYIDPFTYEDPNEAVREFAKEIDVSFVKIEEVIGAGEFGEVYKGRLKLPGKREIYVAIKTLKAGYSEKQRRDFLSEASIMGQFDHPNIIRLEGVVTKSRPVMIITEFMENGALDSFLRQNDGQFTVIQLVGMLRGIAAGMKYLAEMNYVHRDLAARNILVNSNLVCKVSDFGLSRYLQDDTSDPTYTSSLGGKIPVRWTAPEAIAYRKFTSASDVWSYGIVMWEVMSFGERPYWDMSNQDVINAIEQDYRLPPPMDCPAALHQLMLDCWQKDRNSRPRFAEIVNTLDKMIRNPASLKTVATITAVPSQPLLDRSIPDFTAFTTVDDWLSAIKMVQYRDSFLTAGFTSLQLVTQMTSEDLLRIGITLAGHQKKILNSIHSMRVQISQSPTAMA
- assay_comment: radiometric filter-binding kinase assay, Kinase HotSpot
- assay_setup: compound 0.5 µM; ATP 10 µM
quantity_name: residual activity (%)

| substance_smiles | quantity_name | u | test_result |
| --- | --- | --- | --- |
| O=C1c2ccccc2-c2nc3nnnn3nc21 | residual activity | % | 89.5 |
| Cc1cncc2cccc(S(=O)(=O)N3CCCN(C(=O)CN)C[C@H]3C)c12 | residual activity | % | 88.7 |
| COc1cc(Nc2c(C#N)cnc3cc(OCCCN4CCN(C)CC4)c(OC)cc23)c(Cl)cc1Cl | residual activity | % | 11.8 |
| COc1ccc(Cl)cc1NC(=O)Nc1cc(C)nc2ccccc12 | residual activity | % | 102 |
| CS(=O)(=O)CCNCc1ccc(-c2ccc3ncnc(Nc4ccc(OCc5cccc(F)c5)c(Cl)c4)c3c2)o1 | residual activity | % | 104 |

---

- target_under_test: MAPK1 (human) (UniProt P28482)
- Sequence (P28482 whole entry, looked up): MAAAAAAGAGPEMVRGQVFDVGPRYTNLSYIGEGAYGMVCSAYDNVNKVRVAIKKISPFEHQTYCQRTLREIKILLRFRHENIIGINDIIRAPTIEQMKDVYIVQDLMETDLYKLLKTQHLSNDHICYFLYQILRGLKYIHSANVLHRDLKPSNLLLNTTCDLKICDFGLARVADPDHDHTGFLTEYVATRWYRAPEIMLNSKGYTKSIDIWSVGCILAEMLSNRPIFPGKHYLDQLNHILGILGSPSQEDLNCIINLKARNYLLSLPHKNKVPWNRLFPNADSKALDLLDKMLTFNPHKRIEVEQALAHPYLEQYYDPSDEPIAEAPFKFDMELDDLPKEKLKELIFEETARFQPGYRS
- assay_comment: radiometric filter-binding kinase assay, Kinase HotSpot
- assay_setup: compound 0.5 µM; ATP 10 µM
quantity_name: residual activity (%)

| substance_smiles | quantity_name | u | test_result |
| --- | --- | --- | --- |
| COc1cc(Nc2c(C#N)cnc3cc(OCCCN4CCN(C)CC4)c(OC)cc23)c(Cl)cc1Cl | residual activity | % | 93.7 |
| COc1ccc(Cl)cc1NC(=O)Nc1cc(C)nc2ccccc12 | residual activity | % | 90.4 |
| Cc1nc(-c2ccccc2)c(-c2ccncc2)o1 | residual activity | % | 90.3 |
| c1ccc2c(-c3ccncc3)c[nH]c2c1 | residual activity | % | 100 |
| Fc1ccc(-c2nc3n(c2-c2ccncc2)CCS3)cc1 | residual activity | % | 106 |
| CC(C)(C)c1cc(C=C(C#N)C#N)cc(Br)c1O | residual activity | % | 91.3 |
| CN(C)S(=O)(=O)c1ccc2c(c1)/C(=C/c1cc3c([nH]1)CCCC3)C(=O)N2 | residual activity | % | 101 |
| NC(=O)c1cccc(-c2cc(Nc3ccc(OC(F)(F)F)cc3)ncn2)c1 | residual activity | % | 96.6 |
| Ic1cccc(CSc2nnc(-c3ccncc3)o2)c1 | residual activity | % | 107 |
| CO[C@@H]1[C@H](N(C)C(=O)c2ccccc2)C[C@H]2O[C@]1(C)n1c3ccccc3c3c4c(c5c6ccccc6n2c5c31)C(=O)NC4 | residual activity | % | 88.8 |
